The molecules listed here are annotated with their activation at 1 µM.
system-tested: [GSPT1]-[compound of formula (I)]-[CRBN/DDB1] complex (Homo sapiens, UniProt P15170+Q96SW2)
Sequence (P15170 whole entry, one chain of several): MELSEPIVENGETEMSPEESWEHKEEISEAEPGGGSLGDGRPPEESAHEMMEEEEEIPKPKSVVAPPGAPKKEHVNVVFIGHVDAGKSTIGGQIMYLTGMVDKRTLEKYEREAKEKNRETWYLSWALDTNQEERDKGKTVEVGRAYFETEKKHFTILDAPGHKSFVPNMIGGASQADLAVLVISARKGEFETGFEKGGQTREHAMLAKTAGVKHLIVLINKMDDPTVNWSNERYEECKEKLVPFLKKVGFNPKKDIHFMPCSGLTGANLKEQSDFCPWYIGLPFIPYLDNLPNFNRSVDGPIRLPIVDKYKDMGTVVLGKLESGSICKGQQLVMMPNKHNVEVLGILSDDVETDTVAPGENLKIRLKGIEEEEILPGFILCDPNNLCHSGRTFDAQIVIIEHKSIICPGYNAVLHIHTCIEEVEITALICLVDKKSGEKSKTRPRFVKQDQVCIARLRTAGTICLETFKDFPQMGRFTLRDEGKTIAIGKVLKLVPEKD
test-protocol: AlphaLISA ternary complex formation assay (GSPT1)
Type: binding
condition-set: 0.5 h; 1 μM compound; normalized to reference compound CC-885; read-out: Normalized AlphaLISA ternary complex average signal at 1 μM molecule

Some molecules with recorded activation at 1 µM:
Cc1ccc(NC(=O)CCc2ccc3cc(C4CCC(=O)NC4=O)c(C)nc3c2)cc1Cl (centres unmarked): > 50%
Cc1nc2cc(COC(=O)Nc3ccc4c(c3)OCCO4)ccc2cc1C1CCC(=O)NC1=O (centres unmarked): 10 to 50%
Cc1ccc(NC(=O)OCc2ccc3cc([C@@H]4CCC(=O)NC4=O)c(C)nc3c2)cc1Cl: < 10%

[in] Give me measured activation at 1 µM, please, for this molecule: Cc1nc2cc(COC(=O)Nc3cccc(-c4ccccc4)c3)ccc2cc1C1CCC(=O)NC1=O (centres unmarked)
[out] 10 to 50%

[in] Give me measured activation at 1 µM, please, for this molecule: Cc1nc2ccc(CNC(=O)Nc3cc(C(C)(C)C)no3)cc2cc1N1CCC(=O)NC1=O
[out] > 50%

* * *

The compounds listed here are annotated with their activation at 1 µM.
system-tested: [IKZF1 ZF2]-[compound]-[CRBN/DDB1] ternary complex (Homo sapiens, UniProt Q13422+Q96SW2)
Construct: IKZF1 ZF2
Sequence (Q13422 145-167 limits assumed): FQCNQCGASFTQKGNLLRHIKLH
Sequence (Q96SW2 whole entry): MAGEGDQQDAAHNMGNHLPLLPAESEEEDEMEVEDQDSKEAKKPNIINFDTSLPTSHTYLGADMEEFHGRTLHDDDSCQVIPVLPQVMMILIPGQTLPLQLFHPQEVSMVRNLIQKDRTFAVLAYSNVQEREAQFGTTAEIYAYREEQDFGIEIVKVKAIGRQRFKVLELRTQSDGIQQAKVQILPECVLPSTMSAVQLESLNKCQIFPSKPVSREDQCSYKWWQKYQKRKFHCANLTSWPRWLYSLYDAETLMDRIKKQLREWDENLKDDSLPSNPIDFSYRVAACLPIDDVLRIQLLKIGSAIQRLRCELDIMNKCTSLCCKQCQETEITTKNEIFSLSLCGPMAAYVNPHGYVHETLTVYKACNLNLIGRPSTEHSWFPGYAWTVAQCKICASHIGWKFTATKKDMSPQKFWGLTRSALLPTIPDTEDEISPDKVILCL
Sequence (Q16531 whole entry partner): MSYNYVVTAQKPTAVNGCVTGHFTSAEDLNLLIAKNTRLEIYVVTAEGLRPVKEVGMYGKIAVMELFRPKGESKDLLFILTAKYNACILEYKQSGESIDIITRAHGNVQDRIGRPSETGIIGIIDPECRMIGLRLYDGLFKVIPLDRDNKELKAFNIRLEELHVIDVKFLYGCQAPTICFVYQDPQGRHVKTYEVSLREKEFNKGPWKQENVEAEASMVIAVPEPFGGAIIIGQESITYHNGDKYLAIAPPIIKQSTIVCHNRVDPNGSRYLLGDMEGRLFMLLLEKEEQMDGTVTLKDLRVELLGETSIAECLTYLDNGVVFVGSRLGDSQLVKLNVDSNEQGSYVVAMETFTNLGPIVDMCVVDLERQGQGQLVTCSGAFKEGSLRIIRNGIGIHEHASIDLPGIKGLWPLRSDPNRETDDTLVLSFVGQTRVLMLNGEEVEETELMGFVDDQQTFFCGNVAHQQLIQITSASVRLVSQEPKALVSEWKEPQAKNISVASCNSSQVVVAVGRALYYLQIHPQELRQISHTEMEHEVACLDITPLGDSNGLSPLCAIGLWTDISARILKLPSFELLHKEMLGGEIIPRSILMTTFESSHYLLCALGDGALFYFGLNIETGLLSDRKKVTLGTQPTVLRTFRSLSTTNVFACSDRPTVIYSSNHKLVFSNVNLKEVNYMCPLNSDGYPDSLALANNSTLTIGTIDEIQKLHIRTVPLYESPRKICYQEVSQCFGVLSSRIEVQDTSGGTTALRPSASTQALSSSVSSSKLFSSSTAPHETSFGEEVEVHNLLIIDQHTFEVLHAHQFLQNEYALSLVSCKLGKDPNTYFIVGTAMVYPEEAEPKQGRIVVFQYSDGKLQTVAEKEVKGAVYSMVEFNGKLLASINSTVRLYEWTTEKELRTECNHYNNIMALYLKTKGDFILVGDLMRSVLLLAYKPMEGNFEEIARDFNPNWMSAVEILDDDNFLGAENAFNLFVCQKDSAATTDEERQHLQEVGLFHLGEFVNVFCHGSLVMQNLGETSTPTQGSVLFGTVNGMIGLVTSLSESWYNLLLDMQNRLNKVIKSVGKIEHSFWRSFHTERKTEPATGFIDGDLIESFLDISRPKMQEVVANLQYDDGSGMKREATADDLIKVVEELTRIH
test-protocol: AlphaLISA assay for off-target recruitment detection, IKZF1 ZF2
Type: binding
condition-set: 1 μM compound; normalized to Lenalidomide; read-out: Normalized ternary complex response, IKZF1 ZF2

Some compounds with recorded activation at 1 µM:
Cc1nc2ccc(CNC(=O)NC3CCCCC3)cc2cc1N1CCC(=O)NC1=O [Compound 52]: 25 to 50%
Cc1nc2cc(COC(=O)Nc3ccc4c(c3)OCCO4)ccc2cc1C1CCC(=O)NC1=O (stereo not shown) [Compound 15]: < 10%
Cc1nc2ccc(COC(=O)Nc3cc(OC(F)(F)F)ccc3F)cc2cc1C1CCC(=O)NC1=O (stereo not shown) [Compound 7]: 25 to 50%

API: the following record is the query input.
[in] Give me measured activation at 1 µM, please, for this compound: COc1ccc(NC(=O)OCc2ccc3cc(C4CCC(=O)NC4=O)c(C)nc3c2)nn1 (stereo not shown) [Compound 45]
[out] < 10%

* * *

system-tested: [IKZF1 ZF2]-[compound]-[CRBN/DDB1] ternary complex (Homo sapiens, UniProt Q13422+Q96SW2)
Construct: IKZF1 ZF2
test-protocol: AlphaLISA assay for off-target recruitment detection, IKZF1 ZF2
Format: binding
condition-set: 1 μM compound; normalized to Lenalidomide; read-out: Normalized ternary complex response, IKZF1 ZF2
recorded-endpoint: activation at 1 µM

Cc1nc2cc(OC(C)C(=O)NC3CCCCC3)ccc2cc1C1CCC(=O)NC1=O (centres unmarked): < 10%
Cc1nc2cc(COC(=O)NC3CCN(c4ccccc4)CC3)ccc2cc1C1CCC(=O)NC1=O (centres unmarked): < 10%
Cc1ccc(NC(=S)NCc2ccc3cc(C4CCC(=O)NC4=O)c(C)nc3c2)cc1Cl (centres unmarked): < 10%

[in] Give me measured activation at 1 µM, please, for this compound: Cc1nc2cc(COC(=O)Nc3cc(C(F)(F)F)n[nH]3)ccc2cc1C1CCC(=O)NC1=O (centres unmarked)
[out] < 10%

[in] Give me measured activation at 1 µM, please, for this compound: Cc1nc2cc(COC(=O)Nc3cc(C(C)(C)C)no3)ccc2cc1N1CCC(=O)NC1=O
[out] < 10%

[in] Give me measured activation at 1 µM, please, for this compound: Cc1ccc(NC(=O)OCc2ccc3cc(N4CCC(=O)NC4=O)c(C)nc3c2)cc1Cl
[out] < 10%

[in] Give me measured activation at 1 µM, please, for this compound: Cc1nc2cc(COC(=O)Nc3nc(C(C)(C)C)no3)ccc2cc1C1CCC(=O)NC1=O (centres unmarked)
[out] < 10%

[in] Give me measured activation at 1 µM, please, for this compound: Cc1nc2cc(COC(=O)Nc3cc(C(F)(F)F)no3)ccc2cc1C1CCC(=O)NC1=O (centres unmarked)
[out] < 10%
